# test system: T1, GPC3 expressed on hepatoma cell line HepG2 (human, UniProt P51654 25-554)
# T1 construct: whole, on cells; also called GPC3-expressing tumor cells (HepG2); cells expressing GPC3
# T1 sequence (P51654 25-554 limits assumed): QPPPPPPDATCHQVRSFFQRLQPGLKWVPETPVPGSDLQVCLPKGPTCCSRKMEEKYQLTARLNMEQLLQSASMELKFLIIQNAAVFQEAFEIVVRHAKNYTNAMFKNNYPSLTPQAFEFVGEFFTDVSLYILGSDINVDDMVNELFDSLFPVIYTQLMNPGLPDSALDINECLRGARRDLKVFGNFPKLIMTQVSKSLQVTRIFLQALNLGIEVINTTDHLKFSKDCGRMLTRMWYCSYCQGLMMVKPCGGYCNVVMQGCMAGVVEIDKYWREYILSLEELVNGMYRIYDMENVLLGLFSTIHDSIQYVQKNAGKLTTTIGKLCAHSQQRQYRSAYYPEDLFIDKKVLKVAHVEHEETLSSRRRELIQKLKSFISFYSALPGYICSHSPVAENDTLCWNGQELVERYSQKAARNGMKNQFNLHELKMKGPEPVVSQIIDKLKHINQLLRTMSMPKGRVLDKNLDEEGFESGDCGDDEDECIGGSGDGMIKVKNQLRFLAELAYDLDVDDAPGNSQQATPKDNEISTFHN
# method description: flow cytometry on HepG2 cells, 1 µg antibody, PE anti-mouse IgG secondary; mean fluorescence
test readout: Mean
Just the number, please, no unit after it.

Which Mean is reported for this binder? 1A8 antibody (antibody, V domains shown, Mouse hybridoma monoclonal antibody, detected with anti-mouse IgG) VH: QVQLQQPGSELVRPGASVKLSCKASGYTFTSYWMHWVKQRHGQGLEWIGNIYPGSGSTNYDEKFKSKGTLTVDTSSRTAYMHLSSLTSEDSAVYYCTRGHYDYAMDYWGQGTSVTVSS VL: DIVMTQSPSSLSASLGDTITITCHASQNINVWLSWYQQKPGNIPKLLIYKTSNLHTGVPSRFSGSGSGTGFTLTISSLQPEDIATYYCQQGQSYPWTFGGGTKLEIK
36600

// next entry
Which Mean is reported for this binder? 5E11 antibody (antibody, V domains shown, Mouse hybridoma monoclonal antibody, detected with anti-mouse IgG) VH: QVQLKQSGAELMKPGASVKISCKATGYTFSRYWIEWVKQRPGHGLEWIGEILPGSGSTSYNEKFKGKATFTADTSSNTAYMQLSSLTSEDSAVYYCARSARATYYFDYWGQGTTLTVSS VL: DIQMTQTTSSLSASLGDRVTISCWASQDISNYLNWYQQKPDGTVKLLIYYTSTLHSGVPSRFSGSGSGTDYSLTISNLEQEDIATYFCQQGNALPYTFGGGTKLEIK
52600
